Attribution: ChEMBL document CHEMBL1125549

# experimentalSystem: Beta-1 adrenergic receptor (Cavia porcellus, UniProt B0FL73)
# Sequence (B0FL73 whole entry): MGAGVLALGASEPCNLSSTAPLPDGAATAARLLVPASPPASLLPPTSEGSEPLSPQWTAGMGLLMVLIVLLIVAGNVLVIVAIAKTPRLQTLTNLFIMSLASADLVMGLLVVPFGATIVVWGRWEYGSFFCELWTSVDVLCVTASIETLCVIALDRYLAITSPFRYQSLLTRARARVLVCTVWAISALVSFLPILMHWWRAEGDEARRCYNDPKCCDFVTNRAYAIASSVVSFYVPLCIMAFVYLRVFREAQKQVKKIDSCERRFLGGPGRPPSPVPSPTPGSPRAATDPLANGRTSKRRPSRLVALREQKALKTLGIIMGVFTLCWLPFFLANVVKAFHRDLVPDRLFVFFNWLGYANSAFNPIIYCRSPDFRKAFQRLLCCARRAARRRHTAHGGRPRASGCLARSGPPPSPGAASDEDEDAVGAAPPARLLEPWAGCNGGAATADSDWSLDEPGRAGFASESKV
# measurementProtocol: Activity at beta-1 adrenergic receptor
# testConditions: read-out: pA2 (converted)
experimentalEndpoint: Kb (nM)

A = CC(C)NCC(O)COc1ccc(OCCOCCc2ccc(F)cc2)cc1 (centres undefined)
B = CC(C)NCC(O)COc1ccc(-c2ncc[nH]2)cc1 (centres undefined)
[ask] Larger number for Kb: A , or B ? Answer by quoting the chosen item's label.
[reply] B
(B: 25.1 nM, A: 6.31 nM)

a = CC(C)NCC(O)COc1ccc(-c2nc(-c3cccs3)c[nH]2)cc1 (centres undefined)
b = CCc1ccc(OCC(O)CNC(C)C)cc1 (centres undefined)
[ask] Min Kb? a | b Identify your pick by its label.
[reply] a
(a: 1.26 nM, b: 63.1 nM)
